Biological target: Elastase (Sus scrofa, UniProt P00772)
Construct: purchased Sigma-Aldrich
Sequence (P00772 27-266): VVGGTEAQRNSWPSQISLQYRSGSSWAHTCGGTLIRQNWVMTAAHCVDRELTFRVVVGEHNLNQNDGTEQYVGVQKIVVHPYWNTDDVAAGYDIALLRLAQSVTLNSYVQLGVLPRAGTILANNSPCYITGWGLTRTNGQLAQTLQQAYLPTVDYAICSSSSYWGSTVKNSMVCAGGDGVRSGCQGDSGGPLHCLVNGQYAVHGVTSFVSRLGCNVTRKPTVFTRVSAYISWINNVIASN
Test: Elastase inhibition, fluorogenic substrate assay (MeOSuc-Ala-Ala-Pro-Val-AMC)
Assay type: biochemical, Sus domesticus
Details: Elastase; inhibitor concentration 1000 nM; 40 min pre-incubation
Mean (RFU/s) by entry:
Supply the numeric figure in RFU/s, leaving out any unit text.

>>> measured("CC=C1NC(=O)[C@@H](NC(=O)[C@@H](NC(=O)[C@@H]2CCCN2C(=O)CCC)[C@@H](C)OC(=O)C2CCCN2C(=O)CCC)[C@@H](C)OC(=O)[C@H](C(C)C)NC(=O)[C@H](Cc2ccc(O)cc2)N(C)C(=O)[C@H](CC(C)C)N2C(=O)[C@H](CC[C@H]2O)NC1=O (stereo partly drawn) [Rivulariapeptolide 1121, rivulariapeptolide 1121]")
0
>>> measured("CCCC(=O)N1CCCC1C(=O)NC(C(=O)NC1C(=O)NC(CC(C)C)C(=O)NC2CCC(O)N(C2=O)C(Cc2ccccc2)C(=O)N(C)C(Cc2ccc(O)cc2)C(=O)NC(C(C)C)C(=O)OC1C)C(C)OC(=O)C1CCCN1C(=O)CCC (stereo not drawn) [Rivulariapeptolide 1185, rivulariapeptolide 1185]")
0

Switching to the query record.
Request the reported Mean (RFU/s) associated with CC=C1NC(=O)[C@@H](NC(=O)[C@@H](NC(=O)[C@@H]2CCCN2C(=O)CCC)[C@@H](C)OC(=O)C2CCCN2C(=O)CCC)[C@@H](C)OC(=O)[C@H](C(C)C)NC(=O)[C@H](Cc2ccc(O)cc2)N(C)C(=O)[C@H](Cc2ccccc2)N2C(=O)[C@H](CC[C@H]2O)NC1=O (stereo partly drawn) [Rivulariapeptolide 1155, rivulariapeptolide 1155] 0
